pKi values for Serine/threonine-protein kinase PLK1 (Homo sapiens) compiled from several publications are listed below.
pKi: −log10 of the molar value.

// recorded pKi for Cc1ccc(S(=O)(=O)N2CCC(C(C)Nc3ncc(C#N)c(-c4c[nH]c5ncc(C(F)(F)F)cc45)n3)CC2)cc1 (stereo not drawn) : 7.40 to 8.52

// recorded pKi for CC[C@H]1C(=O)N(C)c2cnc(NCc3cnn(Cc4ccc(F)cc4)c3)nc2N1C(C)C : < 5.40

// recorded pKi for COCC(=O)Nc1ccc(Nc2ncc3c(n2)N(C2CCCC2)CC(C)(C)C(=O)N3C)c(OC)c1 : > 8.00

// recorded pKi for CNC(=O)c1ccc(Nc2ncc3c(n2)N(C(C)C)CC(C)(C)C(=O)N3C)c(OC)c1 : 7.00 to 8.00

// recorded pKi for CC[C@H]1C(=O)N(CC)c2cnc(NCc3cnn(Cc4ccc(F)cc4)c3)nc2N1C : < 5.40

// recorded pKi for CCC(O)CNc1ncc(C#N)c(-c2c[nH]c3ncc(C(F)(F)F)cc23)n1 (stereo not drawn) : 7.40 to 8.52

// recorded pKi for N#Cc1cnc(Sc2ccccc2)nc1-c1c[nH]c2ncc(C(F)(F)F)cc12 : 7.40 to 8.52

// recorded pKi for C[C@@H](Nc1ncc(C#N)c(-c2c[nH]c3ncc(C(F)(F)F)cc23)n1)c1ccc(N[C@H]2CCN(C)C2)nc1 : 7.40 to 8.52

// recorded pKi for CC(=O)NCCNc1ncc(C#N)c(-c2c[nH]c3ncc(C(F)(F)F)cc23)n1 : < 7.40

// recorded pKi for C[C@@H](Nc1ncc(C#N)c(-c2c[nH]c3ncc(C(F)(F)F)cc23)n1)C1CCN(C(=O)C(N)=O)CC1 : > 8.52

// recorded pKi for CNC(=O)c1ccc(Nc2ncc3c(n2)N(C2CCN(C)CC2)CC(C)(C)C(=O)N3C)c(OC)c1 : 7.00 to 8.00

// recorded pKi for N#Cc1cnc(N[C@H]2CCOC2)nc1-c1c[nH]c2ncc(C(F)(F)F)cc12 : 7.40 to 8.52

// recorded pKi for CC1(C)c2[nH]nc(NC(=O)C3([Si](C)(C)C)CCC3)c2CN1C(=O)Nc1c(F)ccc(F)c1F : ≤ 5.30

// recorded pKi for C[C@@H](Nc1ncc(C#N)c(-c2c[nH]c3ncc(C(F)(F)F)cc23)n1)[C@H]1CC[C@H](N2CCN(C)CC2)CC1 : > 8.52

// recorded pKi for CC1(C)c2[nH]nc(NC(=O)C3([Si](C)(C)C)CCC3)c2CN1C(=O)Nc1ccsc1 : ≤ 5.30

* * *

pKi: −log10 of the molar value.
pKi values for Serine/threonine-protein kinase PLK1 (Homo sapiens, UniProt P53350) compiled from several publications are listed below.

// pKi (Serine/threonine-protein kinase PLK1 (Homo sapiens, UniProt P53350)) for Cc1cccc(Br)c1NC(=O)N1Cc2c(NC(=O)C3([Si](C)(C)C)CCC3)n[nH]c2C1(C)C = ≤ 5.30

// pKi (Serine/threonine-protein kinase PLK1 (Homo sapiens, UniProt P53350)) for N#Cc1cnc(NC(CO)C2CCOCC2)nc1-c1c[nH]c2ncc(C(F)(F)F)cc12 (stereo not shown) = 7.40 to 8.52

// pKi (Serine/threonine-protein kinase PLK1 (Homo sapiens, UniProt P53350)) for COc1cc(C(=O)NC2CCN(C(=O)OC(C)(C)C)CC2)ccc1Nc1ncc2c(n1)N(C1CCCC1)CC(C)(C)C(=O)N2C = > 8.00

// pKi (Serine/threonine-protein kinase PLK1 (Homo sapiens, UniProt P53350)) for COc1cc(C(=O)NCCC(C)O)ccc1Nc1ncc2c(n1)N(C1CCCC1)CC(C)(C)C(=O)N2C (stereo not shown) = > 8.00

* * *

Ki values for Serine/threonine-protein kinase PLK1 (Homo sapiens) compiled from several publications are listed below.

// recorded Ki for CC(Nc1ncc(C#N)c(-c2c[nH]c3ncc(C(F)(F)F)cc23)n1)C1CCN(C(=O)CO)CC1 (stereo not drawn) : < 3 nM

// recorded Ki for COc1cc(C(=O)NN2CCCC2)ccc1Nc1ncc2c(n1)N(C1CCCC1)CC1(CC1)C(=O)N2C : < 10 nM

// recorded Ki for C[C@H](O)C(=O)N1CCC([C@@H](C)Nc2ncc(C#N)c(-c3c[nH]c4ncc(C(F)(F)F)cc34)n2)CC1 : < 3 nM

// recorded Ki for C[C@@H](Nc1ncc(C#N)c(-c2c[nH]c3ncc(C(F)(F)F)cc23)n1)C1CCN(C(=O)CO)CC1 : < 3 nM

// recorded Ki for COc1cc(C(=O)N[C@@H]2CC[C@@H](O)C2)ccc1Nc1ncc2c(n1)N(C1CCCC1)CC1(CC1)C(=O)N2C : < 10 nM

// recorded Ki for COc1cc(C(=O)NCC2CCC2)ccc1Nc1ncc2c(n1)N(C1CCCC1)CC(C)(C)C(=O)N2C : < 10 nM

// recorded Ki for CSc1ncc(C#N)c(-c2c[nH]c3ncc(C(F)(F)F)cc23)n1 : > 40 nM

// recorded Ki for COc1cc(C(=O)NCc2ccncc2)ccc1Nc1ncc2c(n1)N(C1CCCC1)CC1(CC1)C(=O)N2C : < 10 nM

// recorded Ki for COc1cc(C(=O)NC2CCNCC2)ccc1Nc1ncc2c(n1)N(C1CCCC1)CCC(=O)N2C : < 10 nM

// recorded Ki for CNS(=O)(=O)c1ccc([C@@H](C)Nc2ncc(C#N)c(-c3c[nH]c4ncc(C(F)(F)F)cc34)n2)cc1 : < 3 nM

// recorded Ki for CCC(CO)Nc1ncc(C#N)c(-c2c[nH]c3ncc(C(F)(F)F)cc23)n1 (stereo not drawn) : 3 to 40 nM

// recorded Ki for COc1cc(C(=O)NCc2ccccn2)ccc1Nc1ncc2c(n1)N(C1CCCC1)CC(C)(C)C(=O)N2C : < 10 nM

// recorded Ki for COc1cc(C(=O)NN2CCN(C)CC2)ccc1Nc1ncc2c(n1)N(C1CCCC1)CC1(CC1)C(=O)N2C : < 10 nM

// recorded Ki for CN1C(=O)C(C)(C)CN(C2CCCC2)c2nc(Nc3ccc4c(c3)CC(=O)N4)ncc21 : 10 to 100 nM

// recorded Ki for COc1cc(-c2ncc[nH]2)ccc1Nc1ncc2c(n1)N(C1CCCC1)CC(C)(C)C(=O)N2C : < 10 nM

// recorded Ki for CC(C)S(=O)(=O)N1CCC([C@@H](C)Nc2ncc(C#N)c(-c3c[nH]c4ncc(C(F)(F)F)cc34)n2)CC1 : < 3 nM

// recorded Ki for Cc1nc(NCc2cnn(C3Cc4ccccc4C3)c2)nc2c1NC(=O)[C@H](C)N2C : > 4000 nM

// recorded Ki for CCNC(=O)c1ccc(Nc2ncc3c(n2)N(C2CCCC2)CC(C)(C)C(=O)N3C)c(OC)c1 : < 10 nM

// recorded Ki for COc1cc(C(=O)NC2CCN(C)CC2)ccc1Nc1ncc2c(n1)N(C1CCCC1)C[C@@H](C)C(=O)N2C : < 10 nM

// recorded Ki for CC(C)(C)Nc1ncc(C#N)c(-c2c[nH]c3ncc(C(F)(F)F)cc23)n1 : > 40 nM

// recorded Ki for CN1C(=O)C(C)(C)CN(C2CCCC2)c2nc(Nc3cccn4ncnc34)ncc21 : 10 to 100 nM

// recorded Ki for COc1cc(C(=O)NC2CCN(C)CC2)ccc1Nc1ncc2c(n1)N(C1CCCC1)C[C@H](C)C(=O)N2C : < 10 nM

// recorded Ki for CCC(Nc1ncc(C#N)c(-c2c[nH]c3ncc(C(F)(F)F)cc23)n1)C1CCN(CC#N)CC1 (stereo not drawn) : < 3 nM

// recorded Ki for N#Cc1cnc(NC2CCCc3ccccc32)nc1-c1c[nH]c2ncc(C(F)(F)F)cc12 (stereo not drawn) : > 40 nM

// recorded Ki for CC(Nc1ncc(C#N)c(-c2c[nH]c3ncc(C(F)(F)F)cc23)n1)[C@H]1C[C@@H](O)C1 (stereo partly drawn) : < 3 nM

// recorded Ki for Cc1nc(NCc2cnn(Cc3ccc(C(F)(F)F)o3)c2)nc2c1NC(=O)[C@H](C)N2C : > 4000 nM

// recorded Ki for COc1cc(C(=O)NC2CCCC2)ccc1Nc1ncc2c(n1)N(C1CCCC1)CC1(CC1)C(=O)N2C : < 10 nM

// recorded Ki for N#Cc1cnc(NCCC2CCCCN2)nc1-c1c[nH]c2ncc(C(F)(F)F)cc12 (stereo not drawn) : > 40 nM

// recorded Ki for COc1cc(C(=O)NCc2cccnc2)ccc1Nc1ncc2c(n1)N(C1CCCC1)CC1(CC1)C(=O)N2C : < 10 nM

// recorded Ki for COc1cc(C(=O)Nc2cc(C)[nH]n2)ccc1Nc1ncc2c(n1)N(C1CCCC1)CC(C)(C)C(=O)N2C : < 10 nM

* * *

pKi values for Serine/threonine-protein kinase PLK1 (Homo sapiens, UniProt P53350) compiled from several publications are listed below.
pKi: −log10 of the molar value.

// recorded pKi for CCC(Nc1ncc(C#N)c(-c2c[nH]c3ncc(C(F)(F)F)cc23)n1)C1CCN(S(=O)(=O)CC)CC1 (stereo not drawn) : > 8.52

// recorded pKi for COc1cc(C(=O)NC2CCN(C)CC2)ccc1Nc1ncc2c(n1)N(C)CCC(=O)N2C : 7.00 to 8.00

// recorded pKi for CNC(=O)c1ccc(Nc2ncc3c(n2)N([C@H]2CCOC2)CC(C)(C)C(=O)N3C)c(OC)c1 : > 8.00

// recorded pKi for Cc1nc(NCc2cnn(CCc3ccc(F)cc3)c2)nc2c1N(C)C(=O)[C@H](C)N2C : < 5.40

// recorded pKi for COc1cc(F)c(NC(=O)N2Cc3c(NC(=O)C4([Si](C)(C)C)CCC4)n[nH]c3C2(C)C)c(F)c1 : ≤ 5.30

// recorded pKi for C[C@@H](Nc1ncc(C#N)c(-c2c[nH]c3ncc(C(F)(F)F)cc23)n1)C1CCN(C(=O)[C@H]2C[C@H](O)CN2)CC1 : > 8.52

// recorded pKi for C[C@@H](Nc1ncc(C#N)c(-c2c[nH]c3ncc(C(F)(F)F)cc23)n1)C(=O)NC1CCCC1O (stereo partly drawn) : 7.40 to 8.52

// recorded pKi for COc1cc(C(=O)Nc2nccs2)ccc1Nc1ncc2c(n1)N(C1CCCC1)CC(C)(C)C(=O)N2C : > 8.00

// recorded pKi for C[C@@H](Nc1ncc(C#N)c(-c2c[nH]c3ncc(C(F)(F)F)cc23)n1)c1cccc(C(F)(F)F)c1 : 7.40 to 8.52

// recorded pKi for CC(Nc1ncc(C#N)c(-c2c[nH]c3ncc(C(F)(F)F)cc23)n1)c1cccnc1 (stereo not drawn) : > 8.52

// recorded pKi for N#Cc1cnc(NCc2ccc(Cl)cc2)nc1-c1c[nH]c2ncc(C(F)(F)F)cc12 : < 7.40

// recorded pKi for CC(Nc1ncc(C#N)c(-c2c[nH]c3ncc(C(F)(F)F)cc23)n1)C1(F)CCN(C(=O)CN)CC1 (stereo not drawn) : > 8.52

// recorded pKi for CC1(C)c2[nH]nc(NC(=O)C3([Si](C)(C)C)CCC3)c2CN1C(=O)Nc1c(F)ccc2ccoc12 : ≤ 5.30

// recorded pKi for Cc1nc(NCc2cnn(CCC3CCCCC3)c2)nc2c1NC(=O)[C@H](C)N2C : < 5.40

// recorded pKi for COc1cc(C(=O)NC2CCOCC2)ccc1Nc1ncc2c(n1)N(C1CCCC1)C[C@@H](C)C(=O)N2C : > 8.00
